Assay: SRB cytotoxicity assay, VERO nonneoplastic cells
Assay type: cell-based, monkey
Settings: monkey, VERO (monkey kidney) nonneoplastic cells; at 2.5 µg mL^−1
Source text: In addition, 4 inhibited the proliferation of UACC-62 and VERO cells in a dose-dependent manner.
quantity name: viability at 2.5 µg mL^−1

In [3]: df
Out[3]:
                                   compound  result
0  COc1cc2c(cc1O)CCc1cc(O)cc(OC)c1-2 [Compound 4]   ~100%

###

Test system: VERO cells
Test: SRB cytotoxicity assay, VERO nonneoplastic cells
Format: cell-based, monkey
Settings: Primates, Vero; SRB assay; read-out: IC50 on nontumor mammalian VERO cells
quantity name: IC50

                        input_smiles  assay_system  quantity_name   result
0  COc1cc2c(cc1O)CCc1cc(O)cc(OC)c1-2    VERO cells           IC50  65.1 µM
